Where do these numbers come from? They come from patent US8895571B2.

Collected pIC50 values appear next to each entry.
target: Full length Akt2 (Homo sapiens, UniProt P31751)
Sequence (P31751 whole entry): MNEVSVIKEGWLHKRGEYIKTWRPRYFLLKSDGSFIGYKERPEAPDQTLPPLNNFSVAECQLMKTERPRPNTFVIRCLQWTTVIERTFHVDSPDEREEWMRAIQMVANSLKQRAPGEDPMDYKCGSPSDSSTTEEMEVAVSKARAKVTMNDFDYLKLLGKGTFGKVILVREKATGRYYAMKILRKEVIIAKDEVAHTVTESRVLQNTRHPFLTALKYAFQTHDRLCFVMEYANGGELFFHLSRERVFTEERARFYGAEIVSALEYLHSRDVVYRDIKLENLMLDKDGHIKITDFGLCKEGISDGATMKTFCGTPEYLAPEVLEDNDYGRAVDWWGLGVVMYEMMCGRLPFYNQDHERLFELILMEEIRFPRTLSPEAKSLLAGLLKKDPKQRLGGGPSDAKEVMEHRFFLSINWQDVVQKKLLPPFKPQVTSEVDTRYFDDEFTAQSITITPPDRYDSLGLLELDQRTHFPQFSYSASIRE
pIC50: −log10 of the molar value.

Here are 2 compounds together with their reported answers.
| Smi | Val |
| --- | --- |
| Cn1ncc(F)c1-c1ccc2c(c1)CN([C@H](CN)Cc1cc(F)cc(F)c1)C2=O | > 6.30 |
| COc1cc(C[C@@H](CN)N2Cc3cc(-c4c(Cl)cnn4C)ccc3C2=O)ccn1 | < 5.30 |

[Q] Request the reported pIC50 associated with Cn1ncc(-c2cncnc2)c1-c1ccc2c(c1)CN([C@H](CN)Cc1cccc(F)c1)C2=O
[A] < 5.30

[Q] Then what about the compound Cn1ncc(Cl)c1-c1cc2c(cn1)C(=O)N([C@H](CN)Cc1ccccc1)C2 ?
[A] > 6.30

====

pIC50: −log10 of the molar value.
Entries with their measured pIC50, system Full length Akt3 (Homo sapiens):

Check out these entries, answers already filled in.
| Molecule | Val |
| --- | --- |
| COc1cc(C[C@@H](CN)N2Cc3cc(-c4c(Cl)cnn4C)ccc3C2=O)ccn1 [Example 64] | < 5.30 |
| Cn1ncc(COC2CCC2)c1-c1ccc2c(c1)CN([C@H](CN)Cc1cccc(F)c1)C2=O [Example 8] | > 6.30 |
| Cn1ncc(Cl)c1-c1ccc2c(c1)CN([C@H](CN)Cc1cccc(-c3cccnc3)c1)C2=O [Example 73] | 5.30 to 6.30 |
| Cn1ncc(Cl)c1-c1ncc2c(n1)CN([C@H](CN)Cc1ccccc1)C2=O [Example 113] | 5.30 to 6.30 |
| Cn1ncc(Cl)c1-c1ccc2c(c1)CN(C(CN)c1ccc(F)cc1)C2=O (centres unmarked) [Example 124] | 5.30 to 6.30 |

[Q] Please report the recorded pIC50 for COc1cccc(C(CN)N2Cc3cc(-c4ccnn4C)ccc3C2=O)c1 (centres unmarked) [Example 119] .
[A] 5.30 to 6.30

[Q] Try the molecule Cn1nccc1-c1ccc2c(c1)CN([C@H](CN)Cc1csc3ccccc13)C2=O [Example 76]
[A] > 6.30

====

pIC50: −log10 of the molar value.
Target or system Full length Akt1 (Homo sapiens): recorded pIC50 listed per item.

| Smi | pIC50 |
| --- | --- |
| CCCOCc1cnn(C)c1-c1ccc2c(c1)CN([C@H](CN)Cc1cc(F)cc(F)c1)C2=O | > 6.30 |
| Cn1nccc1-c1ccc2c(c1)CN([C@H](CN)Cc1ccsc1)C2=O | > 6.30 |
| Cn1ncc(-c2cncnc2)c1-c1ccc2c(c1)CN([C@H](CN)Cc1cccc(F)c1)C2=O | < 5.30 |
| Cn1nccc1-c1ccc2c(c1)CN([C@H](CN)Cc1cccc(-c3ccncc3)c1)C2=O | < 5.30 |
| Cn1ncc(-c2ccc3ccccc3c2)c1-c1ccc2c(c1)CN([C@H](CN)Cc1cccc(F)c1)C2=O | 5.30 to 6.30 |

Then this molecule:
[Q] Bench note: what pIC50 did CSCc1cnn(C)c1-c1ccc2c(c1)CN([C@H](CN)Cc1ccccc1)C2=O show?
[A] > 6.30

====

target: Full length Akt2 (Homo sapiens, UniProt P31751); construct: Full length Akt1 (cat #P2999), Akt2 (cat #PV3184); purchased PerkinElmer PV3184; assay: In vitro Akt kinase enzymatic assay (HTRF), Akt2; type: biochemical; conditions: 0.6 nM Akt2, substrate solution with 5 mM ATP, 25° C. 1 hr
pIC50: −log10 of the molar value.
Measured pIC50 of individual entries

// below: answered compounds
| Compound | Quantity measured | Val |
| --- | --- | --- |
| C#Cc1cccc(C[C@@H](CN)N2Cc3cc(-c4c(Cl)cnn4C)ccc3C2=O)c1 [Example 89] | pIC50 | > 6.30 |
| COc1cccc(C(CN)N2Cc3cc(-c4ccnn4C)ccc3C2=O)c1 (stereo not shown) [Example 119] | pIC50 | > 6.30 |

[Q] Entry under review: CN1CCC(NC[C@H](Cc2cccc(F)c2)N2Cc3cc(-c4c(Cl)cnn4C)ccc3C2=O)CC1 [Example 37] . Reported pIC50?
[A] 5.30 to 6.30

[Q] Lookup Cn1ncc(-c2cccc3ccccc23)c1-c1ccc2c(c1)CN([C@H](CN)Cc1cccc(F)c1)C2=O [Example 22]
[A] < 5.30

[Q] Consider next the compound Cn1ncc(COC2CCC2)c1-c1ccc2c(c1)CN([C@H](CN)Cc1cc(F)cc(F)c1)C2=O [Example 47] in the same way.
[A] > 6.30
